- System: Feline infectious peritonitis virus
- Type: cell-based
- measurementContext: CC50/EC50 in Fcwf-4 cells
quantityName: Selectivity index, Feline infectious peritonitis virus
Number only, please.

Previously resolved entries follow.
| molecule | dataValue |
| --- | --- |
| CC[C@H]1/C=C/C=C/C[C@@H](C)[C@H](O)[C@@](C)(O)C(=O)[C@@H](C)[C@H](O)[C@@H](C)C(=O)[C@@H](C)[C@H](O)[C@@H](C)/C=C/C(=O)O[C@@H]2[C@H](C)[C@H](CC1)O[C@]1(CC[C@H](C)[C@H](C[C@@H](C)O)O1)[C@H]2C | 1.06 |
| CCCCCC[C@H]1C(=O)O[C@H](C)[C@H](NC(=O)c2cccc(NC=O)c2O)C(=O)O[C@@H](C)[C@@H]1OC(=O)CC(C)C [Antimycin A] | 1.10 |

Now look at this one.
Inquiry: Value lookup for Selectivity index, Feline infectious peritonitis virus; key = CC[C@H]1CN2CCc3cc(OC)c(OC)cc3[C@@H]2C[C@@H]1C[C@H]1NCCc2cc(OC)c(OC)cc21
Reply text: 3.00
